Each entry below lists one item and its recorded glycan array binding signal (z-score) value.
# TARGET ENTITY: Fuc(a1-2)[Gal(a1-3)]Gal(b1-4)GlcNAc
# PROTOCOL NOTES: glycan array binding signal (z-score within array); higher = stronger binding
# EXPERIMENTAL SETUP: glycan notation: IUPAC condensed, linker removed
About 410 targets per protein were measured; listed, in parts, are those with the strongest signals and a random draw of the rest.

Some binders with recorded glycan array binding signal (z-score):
RbmA (Vibrio cholerae), A0A2H4NFB8 (protein) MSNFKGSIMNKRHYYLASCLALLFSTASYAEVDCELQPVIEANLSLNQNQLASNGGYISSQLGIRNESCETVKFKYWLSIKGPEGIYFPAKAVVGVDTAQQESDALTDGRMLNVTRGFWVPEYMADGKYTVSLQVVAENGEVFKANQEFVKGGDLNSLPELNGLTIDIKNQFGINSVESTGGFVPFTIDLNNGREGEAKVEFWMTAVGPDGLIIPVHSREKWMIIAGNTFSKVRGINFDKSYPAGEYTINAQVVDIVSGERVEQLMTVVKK; -0.42
PGP3 (Chlamydia trachomatis), P0CE18 (protein) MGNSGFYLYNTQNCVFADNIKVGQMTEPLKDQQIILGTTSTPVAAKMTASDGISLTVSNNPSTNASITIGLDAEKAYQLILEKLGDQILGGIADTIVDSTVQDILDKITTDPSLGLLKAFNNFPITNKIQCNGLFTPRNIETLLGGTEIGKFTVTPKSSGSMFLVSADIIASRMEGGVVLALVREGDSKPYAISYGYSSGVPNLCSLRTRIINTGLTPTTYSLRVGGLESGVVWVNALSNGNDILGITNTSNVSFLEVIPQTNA; -1.17

Asked: So what's the measured glycan array binding signal (z-score) for this one? CVNH3T (Magnaporthe grisea) (protein) GSHIGPYGNYAGNFSGSSRDICLDGARLRAECRRGDGGYSTSVIDLNRYLSNDNGHFRWVSGGGGGGGTATVTVQQGDTLRDIGRRFDCDFHEIARRNNIQNEDLIYPGQVLQVPTKGGSGGGAGNFWDSARDVRLVDGGKVLEAELRYSGGWNRSRIYLDEHIGNRNGELIHC
Given back: -0.23
